# measuredOn: T1, P-cadherin-ECD1-3-Fc protein (human P-cadherin-Fc) (human, UniProt P22223 108-440)
# T1 construct: Construct was expressed with signal peptide and pro-peptide (PACE co-transfected to process the propeptide); not shown: hinge and CH2 and CH3 domains of human IgG1
# assaySummary: phage scFv ELISA, coated P-cadherin-ECD1-3-Fc
Measured % of binding of Clone #153 to human P-cadherin-Fc by item
Your answer is read as %, so omit the unit and give the number.

Consider the worked cases shown below.
anti-P-cadherin scFv 153 alanine-mutant H1.3-Ala (scFv, V domains shown, scFv on phage) VH: EVQLVQSGAEVKKPGASVKVSCKASGYAFTSYGISWVRQAPGQGLEWMGWISAYNGNTNYAQKLQGRVTMTTDTSTSTAYMELRSLRSDDTAVYYCATIDTANAFGIWGQGTMVTVSS VL: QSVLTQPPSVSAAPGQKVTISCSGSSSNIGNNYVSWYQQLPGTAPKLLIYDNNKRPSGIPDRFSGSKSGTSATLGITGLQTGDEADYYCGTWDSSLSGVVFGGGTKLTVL : 174
anti-P-cadherin scFv 153 alanine-mutant H1.7-Ala (scFv, V domains shown, scFv on phage) VH: EVQLVQSGAEVKKPGASVKVSCKASGYTFTSAGISWVRQAPGQGLEWMGWISAYNGNTNYAQKLQGRVTMTTDTSTSTAYMELRSLRSDDTAVYYCATIDTANAFGIWGQGTMVTVSS VL: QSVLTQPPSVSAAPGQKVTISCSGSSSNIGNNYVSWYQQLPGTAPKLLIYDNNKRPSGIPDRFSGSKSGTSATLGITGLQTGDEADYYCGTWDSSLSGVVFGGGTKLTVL : 129

Can you look up the measured % of binding of Clone #153 to human P-cadherin-Fc of anti-P-cadherin scFv 153 alanine-mutant H1.2-Ala (scFv, V domains shown, scFv on phage) VH: EVQLVQSGAEVKKPGASVKVSCKASGATFTSYGISWVRQAPGQGLEWMGWISAYNGNTNYAQKLQGRVTMTTDTSTSTAYMELRSLRSDDTAVYYCATIDTANAFGIWGQGTMVTVSS VL: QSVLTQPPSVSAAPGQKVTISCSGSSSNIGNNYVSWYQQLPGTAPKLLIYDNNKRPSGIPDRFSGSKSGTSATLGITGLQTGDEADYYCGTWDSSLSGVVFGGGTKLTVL for me?
179
